Hey, just so you know, these numbers are from patent US11691971B2.

Kindly supply the reported IC50 values for the records listed here.
biological target: catalytic domain (JH1, amino acids 826-1132) of human JAK2 (Homo sapiens (Human), UniProt O60674); assay: JAK2 LanthaScreen JH1 Binding Assay; details: JAK2 JH1 1.5 nM, 50 nM tracer, 2 hours at 25° C.; read-out: JH1BIND IC50
Sequence (O60674 826-1132): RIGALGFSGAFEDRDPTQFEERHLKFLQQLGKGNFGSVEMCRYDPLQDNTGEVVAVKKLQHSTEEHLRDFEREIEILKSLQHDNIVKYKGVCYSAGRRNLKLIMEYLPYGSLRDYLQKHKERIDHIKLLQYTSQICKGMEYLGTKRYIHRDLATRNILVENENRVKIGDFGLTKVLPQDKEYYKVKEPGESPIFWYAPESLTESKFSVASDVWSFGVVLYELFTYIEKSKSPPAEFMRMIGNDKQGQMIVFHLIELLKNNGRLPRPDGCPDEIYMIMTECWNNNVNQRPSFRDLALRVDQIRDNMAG
Where a name gives a salt, the structure may show the parent alone.

Ask | Read off the recorded IC50 for COc1cc(-c2cnn(C3CCOCC3)c2)ccc1Nc1cc(NC(=O)C2CC2)nc2cc[nH]c(=O)c12 [Example 7, Trifluoroacetic Acid Salt]
Reply | 1 to 10 µM

Ask | Read off the recorded IC50 for COc1c(Nc2cc(NC(=O)C3CC3)nc3cc[nH]c(=O)c23)cccc1-c1cnn(C2CCOCC2)c1 [Example 5, Trifluoroacetic Acid Salt]
Reply | > 10 µM

Ask | Read off the recorded IC50 for COc1c(Nc2cc(NC(=O)C3CC3)nc3cc[nH]c(=O)c23)cccc1C(=O)NCC1CCOCC1 [Example 11, Trifluoroacetic Acid Salt]
Reply | > 10 µM

Ask | Read off the recorded IC50 for O=C(Nc1cc(Nc2cccc(-c3cnn(C4CCOCC4)c3)c2)c2c(=O)[nH]ccc2n1)C1CC1 [Example 6, Trifluoroacetic Acid Salt]
Reply | 1 to 10 µM

Ask | Read off the recorded IC50 for O=C(Nc1cc(Nc2ccccc2OC(F)F)c2c(=O)[nH]ccc2n1)C1CC1 [Example 20, Trifluoroacetic Acid Salt]
Reply | 1 to 10 µM

Ask | Read off the recorded IC50 for Cc1[nH]ncc1-c1c(Nc2cc(NC(=O)C3CC3)nc3cc[nH]c(=O)c23)cccc1C(F)(F)F [Example 19, Trifluoroacetic Acid Salt]
Reply | > 10 µM

* * *

Kindly supply the reported pIC50 values for the records listed here.
molecular target: catalytic domain (JH1, amino acids 826-1132) of human JAK2 (Homo sapiens (Human), UniProt O60674); assay: JAK2 LanthaScreen JH1 Binding Assay; conditions: JAK2 JH1 1.5 nM, 50 nM tracer, 2 hours at 25° C.; read-out: JH1BIND IC50
pIC50: −log10 of the molar value. Where a name gives a salt, the structure may show the parent alone.

Ask | Read off the recorded pIC50 for COc1c(Nc2cc(NC(=O)C3CC3)nc3cc[nH]c(=O)c23)cccc1N1CCN(S(=O)(=O)C2CC2)CC1 [Example 4, Trifluoroacetic Acid Salt]
Reply | 5.00 to 6.00

Ask | Read off the recorded pIC50 for COc1c(Nc2cc(NC(=O)C3CC3)nc3cc[nH]c(=O)c23)cccc1-c1cn[nH]c1
Reply | 5.00 to 6.00

Ask | Read off the recorded pIC50 for CSc1c(Nc2cc(NC(=O)C3CC3)nc3cc[nH]c(=O)c23)cccc1-c1cnn(C2CCOCC2)c1 [Example 12, Trifluoroacetic Acid Salt]
Reply | < 5.00

Ask | Read off the recorded pIC50 for COc1c(Nc2cc(NC(=O)C3CC3)nc3cc[nH]c(=O)c23)cccc1-c1cnc(C2CCOCC2)s1 [Example 2, Trifluoroacetic Acid Salt]
Reply | < 5.00

* * *

target: pseudo-kinase domain (JH2) of human Wild Type JAK2 (Homo sapiens (Human), UniProt O60674, F794H/W659A/W777A); assay: JAK2 LanthaScreen JH2-WT Binding Assay; conditions: JAK2 JH2-WT 0.145 nM, 50 nM tracer, 1 hour at 25° C.; read-out: JH2BIND_WT IC50
Sequence (O60674 536-812 W659A/W777A/F794H): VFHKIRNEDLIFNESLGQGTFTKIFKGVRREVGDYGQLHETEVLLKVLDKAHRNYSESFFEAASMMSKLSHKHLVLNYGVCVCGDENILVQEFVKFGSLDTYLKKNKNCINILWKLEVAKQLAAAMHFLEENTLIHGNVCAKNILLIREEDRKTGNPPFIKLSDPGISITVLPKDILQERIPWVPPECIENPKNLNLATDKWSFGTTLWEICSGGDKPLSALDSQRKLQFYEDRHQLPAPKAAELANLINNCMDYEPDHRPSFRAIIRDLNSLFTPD
Structures can show the parent of a compound that is named as a salt.
OBSERVED PROPERTY: IC50

Ask | Read off the recorded IC50 for COc1c(Nc2cc(NC(=O)C3CC3)nc3cc[nH]c(=O)c23)cccc1-c1cnc(C2CCOCC2)s1 [Example 2, Trifluoroacetic Acid Salt]
Reply | ≤ 100 nM

Ask | Read off the recorded IC50 for COc1c(Nc2cc(NC(=O)C3CC3)nc3ccn(C)c(=O)c23)cccc1-c1cnc(C2CCOCC2)s1 [Example 10, Trifluoroacetic Acid Salt]
Reply | 1000 to 10000 nM

Ask | Read off the recorded IC50 for COc1ccccc1Nc1cc(NC(=O)C2CC2)nc2cc[nH]c(=O)c12
Reply | 1000 to 10000 nM
